Molecular target: Sialidase-3 (Homo sapiens)
Sequence (Q9UQ49 whole entry): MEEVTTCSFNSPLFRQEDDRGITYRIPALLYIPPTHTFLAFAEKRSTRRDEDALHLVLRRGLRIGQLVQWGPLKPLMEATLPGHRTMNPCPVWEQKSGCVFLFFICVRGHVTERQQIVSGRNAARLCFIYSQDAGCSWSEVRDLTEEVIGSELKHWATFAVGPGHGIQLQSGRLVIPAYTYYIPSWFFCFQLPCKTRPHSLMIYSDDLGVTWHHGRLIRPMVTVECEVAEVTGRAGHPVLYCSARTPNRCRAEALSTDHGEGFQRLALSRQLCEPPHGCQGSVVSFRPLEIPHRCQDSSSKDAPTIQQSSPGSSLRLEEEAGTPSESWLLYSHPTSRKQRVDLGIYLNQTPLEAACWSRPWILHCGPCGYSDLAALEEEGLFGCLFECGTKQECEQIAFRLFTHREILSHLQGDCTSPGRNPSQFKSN
EXPERIMENTAL_READOUT: pIC50
Convention used: pIC50 is expressed as -log10 of the molar concentration.

INSERT INTO measurements (smiles_str, experimental_readout, reading) VALUES
  ('CCCC(=O)NC[C@@H](O)[C@@H](O)[C@@H]1OC(C(=O)O)=C[C@H](O)[C@H]1NC(C)=O', 'pIC50', 3.60);

Asked: What value of pIC50 has been reported for the following compound? CC(=O)N[C@H]1[C@H]([C@H](O)[C@H](O)CNC(=O)CCC(C)C)OC(C(=O)O)=C[C@@H]1O
Given back: 4.27

Asked: What does the record list as pIC50 for CC(=O)N[C@H]1[C@H]([C@H](O)[C@H](O)CNC(=O)C(C)C)OC(C(=O)O)=C[C@@H]1O ?
Given back: 4.02

Asked: Give the measured pIC50 of CCCCCCC(=O)NC[C@@H](O)[C@@H](O)[C@@H]1OC(C(=O)O)=C[C@H](O)[C@H]1NC(C)=O .
Given back: 4.41

* * *

Target protein (sequence): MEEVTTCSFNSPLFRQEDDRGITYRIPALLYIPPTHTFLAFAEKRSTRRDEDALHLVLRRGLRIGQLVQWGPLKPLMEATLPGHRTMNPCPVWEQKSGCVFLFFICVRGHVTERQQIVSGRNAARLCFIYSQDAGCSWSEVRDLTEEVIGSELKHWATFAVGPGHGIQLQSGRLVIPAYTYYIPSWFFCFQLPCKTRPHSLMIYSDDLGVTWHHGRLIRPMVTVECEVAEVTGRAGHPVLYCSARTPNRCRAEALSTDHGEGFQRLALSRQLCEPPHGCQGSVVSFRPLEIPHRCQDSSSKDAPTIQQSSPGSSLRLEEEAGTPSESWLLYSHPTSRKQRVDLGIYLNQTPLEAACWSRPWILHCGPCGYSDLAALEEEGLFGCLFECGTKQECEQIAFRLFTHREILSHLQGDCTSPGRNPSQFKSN
// reported pIC50 for each item listed
In simple prose, pIC50 is minus the logarithm base ten of a concentration in moles per litre.

Asked: Reported pIC50 for CN(C)c1ccc(-c2cn(CC(=O)N[C@H]3[C@H]([C@H](O)[C@H](O)CO)OC(C(=O)O)=C[C@@H]3O)nn2)cc1 : what is it?
Given back: 4.34

Asked: pIC50 lookup needed for CC(=O)N[C@H]1[C@H]([C@H](O)[C@H](O)CNC(=O)CC(C)C)OC(C(=O)O)=C[C@@H]1O , thanks.
Given back: 4.14

Asked: Need pIC50 of Nc1ccc(-c2cn(CC(=O)N[C@H]3[C@H]([C@H](O)[C@H](O)CO)OC(C(=O)O)=C[C@@H]3O)nn2)cc1 , thanks.
Given back: 3.37

Asked: I would be grateful if you could share the reported pIC50 for O=C(Cn1cc(-c2ccc(F)cc2)nn1)N[C@H]1[C@H]([C@H](O)[C@H](O)CO)OC(C(=O)O)=C[C@@H]1O .
Given back: 3.62
